- targetEntity: Protein kinase C delta type (Homo sapiens)
- Sequence (Q05655 whole entry): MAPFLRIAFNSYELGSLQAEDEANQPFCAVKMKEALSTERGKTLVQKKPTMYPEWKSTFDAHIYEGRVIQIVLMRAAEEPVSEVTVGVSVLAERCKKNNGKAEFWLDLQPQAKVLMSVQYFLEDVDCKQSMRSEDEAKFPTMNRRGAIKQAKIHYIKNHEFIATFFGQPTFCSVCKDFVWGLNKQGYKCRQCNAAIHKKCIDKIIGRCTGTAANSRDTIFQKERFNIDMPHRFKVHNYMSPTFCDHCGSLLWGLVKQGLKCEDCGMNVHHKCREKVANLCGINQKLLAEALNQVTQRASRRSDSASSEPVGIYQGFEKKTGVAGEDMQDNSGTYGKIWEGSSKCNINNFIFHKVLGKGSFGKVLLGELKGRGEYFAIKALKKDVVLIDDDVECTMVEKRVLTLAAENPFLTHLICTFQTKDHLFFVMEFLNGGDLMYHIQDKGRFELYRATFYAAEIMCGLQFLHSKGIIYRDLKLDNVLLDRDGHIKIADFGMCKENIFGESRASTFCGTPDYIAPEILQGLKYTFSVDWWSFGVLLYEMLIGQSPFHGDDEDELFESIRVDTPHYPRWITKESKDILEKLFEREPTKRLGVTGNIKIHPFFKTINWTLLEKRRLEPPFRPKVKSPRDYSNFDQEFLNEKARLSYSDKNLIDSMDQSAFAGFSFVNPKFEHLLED
- measurementNotes: Inhibition of PRKCD
testReadout: IC50

Q) Query: IC50; subject: COc1ccc(C(=O)NCc2cccc(C(=O)Nc3ccc4c(c3)CNCC4)c2)cc1OC
A) > 10 µM

----------
- targetEntity: Rho-associated protein kinase 2 (Homo sapiens, UniProt O75116)
- Sequence (O75116 whole entry): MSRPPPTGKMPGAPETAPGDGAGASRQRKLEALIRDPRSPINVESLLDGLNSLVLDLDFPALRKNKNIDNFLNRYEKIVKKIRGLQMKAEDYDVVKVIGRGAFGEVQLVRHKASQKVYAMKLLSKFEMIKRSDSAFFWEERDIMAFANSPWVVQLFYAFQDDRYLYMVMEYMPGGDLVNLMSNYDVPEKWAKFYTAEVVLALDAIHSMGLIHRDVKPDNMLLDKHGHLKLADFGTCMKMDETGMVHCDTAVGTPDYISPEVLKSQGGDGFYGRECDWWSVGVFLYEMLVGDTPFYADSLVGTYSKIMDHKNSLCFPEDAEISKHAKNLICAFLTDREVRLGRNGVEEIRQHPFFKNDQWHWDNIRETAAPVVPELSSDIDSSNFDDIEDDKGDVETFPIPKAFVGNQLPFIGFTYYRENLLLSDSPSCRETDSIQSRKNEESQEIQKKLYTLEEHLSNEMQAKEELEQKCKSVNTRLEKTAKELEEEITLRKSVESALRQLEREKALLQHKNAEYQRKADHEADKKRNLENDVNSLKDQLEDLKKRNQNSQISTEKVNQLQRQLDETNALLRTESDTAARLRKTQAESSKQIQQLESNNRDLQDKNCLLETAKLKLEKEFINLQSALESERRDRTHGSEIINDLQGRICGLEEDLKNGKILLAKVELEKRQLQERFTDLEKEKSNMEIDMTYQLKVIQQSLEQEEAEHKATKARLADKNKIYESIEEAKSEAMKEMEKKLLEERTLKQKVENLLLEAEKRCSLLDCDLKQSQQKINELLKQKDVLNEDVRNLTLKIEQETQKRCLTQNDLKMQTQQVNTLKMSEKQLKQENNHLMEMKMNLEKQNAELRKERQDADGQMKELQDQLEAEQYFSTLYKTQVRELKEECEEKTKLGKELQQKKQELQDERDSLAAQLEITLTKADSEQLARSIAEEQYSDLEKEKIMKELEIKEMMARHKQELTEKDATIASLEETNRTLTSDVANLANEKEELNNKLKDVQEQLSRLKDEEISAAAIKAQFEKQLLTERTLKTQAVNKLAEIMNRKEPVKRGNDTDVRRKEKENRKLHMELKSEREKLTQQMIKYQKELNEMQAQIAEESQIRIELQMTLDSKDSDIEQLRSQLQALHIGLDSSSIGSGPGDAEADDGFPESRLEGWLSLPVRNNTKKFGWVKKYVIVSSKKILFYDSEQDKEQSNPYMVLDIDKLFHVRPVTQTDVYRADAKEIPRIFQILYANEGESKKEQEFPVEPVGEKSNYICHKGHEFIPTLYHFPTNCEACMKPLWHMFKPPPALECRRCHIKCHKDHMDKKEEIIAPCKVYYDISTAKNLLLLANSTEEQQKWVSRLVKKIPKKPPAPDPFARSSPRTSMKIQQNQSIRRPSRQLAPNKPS
testReadout: IC50 (µM)
// note: answer is a bare numeric in µM

Take a look at these entries with their results.
N#Cc1cccc(NC(=O)NCc2cccc(C(=O)NCCC3CCCNC3)c2)c1 (stereo not given)    0.089
COc1ccc(C(=O)NCc2cccc(NC(=O)CCC3CCCNC3)c2)cc1OC (stereo not given)    0.073
COc1ccc(C(=O)NCc2cccc(C(=O)Nc3ccc4c(c3)CNCC4)c2)cc1OC    0.033

Q) Any idea what IC50 came out for COc1ccc(C(=O)NCc2cccc(C(=O)NCCC3CCCNC3)c2)cc1OC (stereo not given) on Rho-associated protein kinase 2 (Homo sapiens, UniProt O75116)?
A) 0.053

----------
- targetEntity: cGMP-dependent protein kinase 1 (Homo sapiens, UniProt Q13976)
- Sequence (Q13976 whole entry): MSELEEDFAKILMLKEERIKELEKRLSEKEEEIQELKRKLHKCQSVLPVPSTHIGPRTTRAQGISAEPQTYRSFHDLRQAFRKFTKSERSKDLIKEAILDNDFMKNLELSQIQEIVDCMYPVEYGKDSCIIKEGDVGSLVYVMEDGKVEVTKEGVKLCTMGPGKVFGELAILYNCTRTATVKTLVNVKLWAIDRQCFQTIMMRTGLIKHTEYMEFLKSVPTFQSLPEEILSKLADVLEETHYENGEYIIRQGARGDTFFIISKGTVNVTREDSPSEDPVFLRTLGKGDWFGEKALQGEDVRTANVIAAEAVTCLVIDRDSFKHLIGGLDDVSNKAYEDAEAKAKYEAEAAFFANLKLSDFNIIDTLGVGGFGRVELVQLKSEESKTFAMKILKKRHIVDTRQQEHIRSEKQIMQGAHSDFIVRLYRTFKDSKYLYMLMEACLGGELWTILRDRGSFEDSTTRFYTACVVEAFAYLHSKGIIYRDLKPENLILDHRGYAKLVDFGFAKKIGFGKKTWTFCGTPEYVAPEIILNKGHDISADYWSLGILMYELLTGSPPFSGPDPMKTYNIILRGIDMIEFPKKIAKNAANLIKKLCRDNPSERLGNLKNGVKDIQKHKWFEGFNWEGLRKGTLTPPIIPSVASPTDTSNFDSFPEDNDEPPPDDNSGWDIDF
- measurementNotes: Inhibition of PRKG1
testReadout: pIC50
Give only the number. pIC50 is defined as minus log10 of concentration in molar units.

Q) Query: pIC50; subject: COc1ccc(C(=O)NCc2cccc(C(=O)Nc3ccc4c(c3)CNCC4)c2)cc1OC
A) 5.25

----------
- targetEntity: Rho-associated protein kinase 2 (Homo sapiens, UniProt O75116)
- measurementNotes: Inhibition of human ROCK2 by IMAP assay
Recorded IC50 for the following compounds
// note: answer is a bare numeric in nM

Q) Query: IC50; subject: CN(C)Cc1ccc(NC(=O)c2cccc(CNC(=O)Nc3ccc(C(N)=O)cc3)c2)cc1
A) 14

----------
- targetEntity: Cytochrome P450 2D6 (Homo sapiens)
- Sequence (P10635 whole entry): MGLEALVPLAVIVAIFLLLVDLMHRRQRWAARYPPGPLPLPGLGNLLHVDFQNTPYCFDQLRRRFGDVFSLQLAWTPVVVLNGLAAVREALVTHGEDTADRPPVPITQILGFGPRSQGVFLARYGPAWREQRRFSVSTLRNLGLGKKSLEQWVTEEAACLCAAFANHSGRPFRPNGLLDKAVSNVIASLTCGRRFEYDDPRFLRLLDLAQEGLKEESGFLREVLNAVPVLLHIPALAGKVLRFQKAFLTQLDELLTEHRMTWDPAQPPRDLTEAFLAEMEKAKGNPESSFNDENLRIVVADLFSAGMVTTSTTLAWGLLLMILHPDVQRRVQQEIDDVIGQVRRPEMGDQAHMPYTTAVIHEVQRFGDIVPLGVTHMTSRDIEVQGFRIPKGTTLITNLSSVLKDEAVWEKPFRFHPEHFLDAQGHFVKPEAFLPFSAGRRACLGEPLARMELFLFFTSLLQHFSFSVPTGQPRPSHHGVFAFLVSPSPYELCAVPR
- measurementNotes: Inhibition of human CYP2D6 by LCMS/MS assay
- Assay type: ADME
pIC50: −log10 of the molar value.
Recorded pIC50 for the following compounds

COc1ccc(C(=O)NCc2cccc(C(=O)Nc3ccc(CN(C)C)cc3)c2)cc1C    < 4.52
COc1ccc(C(=O)NCc2cccc(C(=O)Nc3ccc(CN(C)C)cc3)c2)cc1Cl    < 4.52

Now for the compound whose pIC50 we want.
Q) Any idea what pIC50 came out for COc1ccc(C(=O)NCc2cccc(C(=O)Nc3ccc(CO)cc3)c2)cc1OC on Cytochrome P450 2D6 (Homo sapiens)?
A) < 4.52

----------
- targetEntity: Tyrosine-protein kinase ITK/TSK (Homo sapiens, UniProt Q08881)
- Sequence (Q08881 whole entry): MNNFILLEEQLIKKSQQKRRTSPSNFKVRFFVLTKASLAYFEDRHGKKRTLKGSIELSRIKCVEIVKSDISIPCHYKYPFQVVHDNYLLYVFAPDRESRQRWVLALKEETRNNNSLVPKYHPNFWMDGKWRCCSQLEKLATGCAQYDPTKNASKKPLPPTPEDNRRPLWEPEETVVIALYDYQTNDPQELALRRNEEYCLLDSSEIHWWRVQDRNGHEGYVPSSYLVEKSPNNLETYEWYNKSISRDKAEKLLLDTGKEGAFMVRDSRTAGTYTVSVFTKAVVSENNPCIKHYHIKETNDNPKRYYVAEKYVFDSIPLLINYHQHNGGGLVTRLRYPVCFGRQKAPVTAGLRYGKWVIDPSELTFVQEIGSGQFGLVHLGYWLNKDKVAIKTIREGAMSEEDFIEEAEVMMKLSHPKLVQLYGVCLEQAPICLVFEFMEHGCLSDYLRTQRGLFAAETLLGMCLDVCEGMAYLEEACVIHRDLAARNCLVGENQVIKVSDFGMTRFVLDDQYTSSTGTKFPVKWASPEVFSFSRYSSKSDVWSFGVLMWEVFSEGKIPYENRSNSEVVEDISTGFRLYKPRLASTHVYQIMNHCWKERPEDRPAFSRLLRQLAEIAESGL
pIC50: −log10 of the molar value.
testReadout: pIC50

Q) Query: pIC50; subject: COc1ccc(C(=O)NCc2cccc(C(=O)Nc3ccc4c(c3)CNCC4)c2)cc1OC
A) < 5.00

----------
- measurementNotes: Bioavailability in rat
- Assay type: ADME, organism-based
- measurementContext: in vivo
testReadout: bioavailability

Q) Query: bioavailability; subject: COc1ccc(C(=O)NCc2cccc(C(=O)Nc3ccc(CN(C)C)cc3)c2)cc1OC
A) 1.8%

----------
Observed pIC50 values for Rho-associated protein kinase 2 (Homo sapiens, UniProt O75116) are listed in what follows.
Give only the number. pIC50 is defined as minus log10 of concentration in molar units.

Take a look at these entries with their results.
COc1ccc(NC(=O)Cc2cccc(NC(=O)CCC3CCCNC3)c2)cc1OC (stereo unspecified)    4.43
N#Cc1ccc(NC(=O)NCc2cccc(C(=O)NCCC3CCNCC3)c2)cc1    4.19
COc1ccc(C(=O)NCc2cccc(C(=O)NCC3CCCO3)c2)cc1OC (racemic)    5.92
CN(C)Cc1ccc(NC(=O)c2cccc(CNC(=O)Nc3cccc(C(N)=O)c3)c2)cc1    3.62
N#Cc1ccc(NC(=O)NCc2cccc(NC(=O)CCC3CCCNC3)c2)cc1 (stereo unspecified)    3.96

Now for the compound whose pIC50 we want.
Q) Any idea what pIC50 came out for CN(C)Cc1ccc(NC(=O)c2cccc(CNC(=O)Nc3ccc(C(N)=O)cc3)c2)cc1 on Rho-associated protein kinase 2 (Homo sapiens, UniProt O75116)?
A) 5.10

All values here come from ChEMBL document CHEMBL1157712.
